Attribution: patent US8143419B2

Quick list: melting point per entry.

Solved entries:
CN(C)C(=O)CCn1nc(Nc2cccc(F)c2)nc1-c1ccc2c(c1)OCCO2 = 114.3 to 116.3 °C
N#CCCn1nc(Nc2cccc(C(F)(F)F)c2)nc1-c1ccncc1 = 155.9 to 157.1 °C
NC(=O)CCn1nc(Nc2cccc(C(F)(F)F)c2)nc1-c1ccc2c(c1)OCCO2 = 175.2 to 176.5 °C

We now examine a further compound.
## Task For `CC(C)NC(=O)CCn1nc(Nc2cccc(C(F)(F)F)c2)nc1-c1ccncc1` , what is its reported melting point?
## Result 196.5 to 197.2 °C

----------
Biological target: hα7-wt nAChR (Homo sapiens, UniProt P36544)
Construct: expressed in transfected cells
Sequence (P36544 23-502): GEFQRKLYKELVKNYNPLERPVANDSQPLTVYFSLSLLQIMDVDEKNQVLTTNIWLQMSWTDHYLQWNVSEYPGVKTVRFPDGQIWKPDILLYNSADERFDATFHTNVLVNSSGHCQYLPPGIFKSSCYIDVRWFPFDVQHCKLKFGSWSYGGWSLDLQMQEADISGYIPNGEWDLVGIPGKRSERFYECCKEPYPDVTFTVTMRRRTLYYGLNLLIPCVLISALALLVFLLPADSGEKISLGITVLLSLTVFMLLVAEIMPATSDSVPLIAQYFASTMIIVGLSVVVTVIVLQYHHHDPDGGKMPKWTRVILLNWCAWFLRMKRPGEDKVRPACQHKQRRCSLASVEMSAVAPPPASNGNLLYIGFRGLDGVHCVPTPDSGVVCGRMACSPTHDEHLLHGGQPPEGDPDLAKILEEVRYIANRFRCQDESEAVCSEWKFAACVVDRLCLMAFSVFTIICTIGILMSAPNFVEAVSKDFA
Experiment: Ca2+ flux imaging (FDSS) (Protocol B), PAM activity with choline as agonist
Type: cell-based
Details: "<5" = no top plateau at maximal concentration
Method: […] PAM activity was detected in real time by applying the compounds to be tested to the loaded cells along with a α7 nicotinic receptor agonist during constant monitoring of cellular fluorescence in a FDSS. […] A control response to choline was calculated on each plate from the difference in peak in fluorescence in wells receiving either choline or assay buffer alone. […]
Measured EC50 accompanies every entry in the list below.
A number alone suffices; assume nM.

Recorded results for 3 molecules are shown here.
CNC(=O)Cn1nc(Nc2ccc3c(c2)OC(F)(F)O3)nc1-c1cc(Cl)ncc1Cl [Compound 203] = 3160
COc1ccc(-c2nc(Nc3cccc(C(F)(F)F)c3)nn2CCO)cn1 [Compound 72] = 1260
Cc1ccncc1-c1nc(Nc2ccc(F)c(C(F)(F)F)c2)nn1CC(=O)NC1CC1 [Compound 120] = 3980

## Task Observed EC50 on hα7-wt nAChR (Homo sapiens, UniProt P36544) for COc1ccc(-c2nc(Nc3ccc(F)c(C(F)(F)F)c3)nn2CC(=O)NC(C)C)c(OC)c1 [Compound 119] , please.
## Result 794

## Task Request body: readout EC50, system hα7-wt nAChR (Homo sapiens, UniProt P36544), query CCc1ccc(-c2nc(Nc3ccc(F)c(C(F)(F)F)c3)nn2CCC(=O)N(C)C)cn1 [Compound 128] . Return the value.
## Result 50.1

## Task Return EC50 measured with hα7-wt nAChR (Homo sapiens, UniProt P36544) given this molecule: CNC(=O)Cn1nc(Nc2ccc(F)c(C(F)(F)F)c2)nc1-c1ccncc1F [Compound 116]
## Result 1260

## Task Item C[C@H](O)Cn1nc(Nc2ccc(F)c(C(F)(F)F)c2)nc1-c1cnc2c(c1)OCC2 [Compound 105] with hα7-wt nAChR (Homo sapiens, UniProt P36544) - EC50?
## Result 3980

## Task Give hα7-wt nAChR (Homo sapiens, UniProt P36544) EC50 for COCCNc1ccc(-c2nc(Nc3ccc(F)c(C(F)(F)F)c3)nn2CCC(=O)N(C)C)cn1 [Compound 131]
## Result 398

## Task Form: Entry = CN(C)C(=O)CCn1nc(Nc2ccc(F)c(C(F)(F)F)c2)nc1-c1cnc2c(c1)CCN2 [Compound 58] | System = hα7-wt nAChR (Homo sapiens, UniProt P36544) | EC50 = ____
## Result 158

## Task Form field: EC50 recorded for CNC(=O)Cn1nc(Nc2ccc(F)c(C(F)(F)F)c2)nc1-c1ccncc1Cl [Compound 117] with hα7-wt nAChR (Homo sapiens, UniProt P36544) (enter value)
## Result 1000

## Task // map O=C(CCn1nc(Nc2cccc(C(F)(F)F)c2)nc1-c1ccncc1)N1CCCC1 [Compound 85] to recorded EC50 (system: hα7-wt nAChR (Homo sapiens, UniProt P36544))
## Result 316

## Task Recorded EC50 for COCc1cc(-c2nc(Nc3ccc(F)c(C(F)(F)F)c3)nn2CC(=O)NC2CC2)ccn1 [Compound 62] with hα7-wt nAChR (Homo sapiens, UniProt P36544), please?
## Result 316

## Task Reported EC50 for hα7-wt nAChR (Homo sapiens, UniProt P36544), given CNC(=O)Cn1nc(Nc2ccc(F)c(C(F)(F)F)c2)nc1-c1cnc2c(c1)OCC2 [Compound 28] ?
## Result 794

## Task Could you share what EC50 was measured for COc1ccc(Nc2nc(-c3ccncc3Cl)n(CCC(=O)N(C)C)n2)cc1C(F)(F)F [Compound 145] , tested on hα7-wt nAChR (Homo sapiens, UniProt P36544)?
## Result 200

## Task Quick check: EC50 on hα7-wt nAChR (Homo sapiens, UniProt P36544), item CCNC(=O)Cn1nc(Nc2cc(Br)cc(C(F)(F)F)c2)nc1-c1ccc(OC)c(OCc2ccccc2)c1 [Compound 142] ?
## Result 100
